System: SK-MEL-28
testSummary: NCI tumour cell line growth inhibition, 48 h
Calls of active or inactive are those of the source. Rule as the data show it: active = GI50 up to about 1.1 µM and inactive = higher.
Valid outcomes are listed here; reply with one: yes (active), no (inactive)

**Query** Lab log entry: `O=P(O)(Cc1ccccc1)c1ccccc1-c1ccccc1` — outcome as called in the assay?
**Result** no

**Query** Lab log entry: `CCN(CC)C(=S)SNCCc1ccc(S(N)(=O)=O)cc1` — outcome as called in the assay?
**Result** no

**Query** Lab log entry: `CCOC(=O)NC(=O)c1cn(CCCCCCOC(=O)NCCCCCCNC(=O)OCCCCCCn2cc(C(=O)NC(=O)OCC)c(=O)[nH]c2=O)c(=O)[nH]c1=O` — outcome as called in the assay?
**Result** no

**Query** Lab log entry: O=C(OCc1ccccc1)C(Cc1ccc(OCc2ccccc2)cn1)NC(=O)C(F)(F)F (stereo not given) — outcome as called in the assay?
**Result** no

**Query** Lab log entry: COC1OC(C)C(OC(=O)C(C)(C)C)C(OS(=O)(=O)c2ccc(C)cc2)C1OS(=O)(=O)c1ccc(C)cc1 (stereo not given) — outcome as called in the assay?
**Result** no

**Query** Lab log entry: `OCCNCNc1nc(NCNCCO)nc(N(CNCCO)CNCCO)n1` — outcome as called in the assay?
**Result** no

**Query** Lab log entry: `O=C1c2ccccc2C(=O)c2sc(Nc3ccccc3Cl)nc21` — outcome as called in the assay?
**Result** no

**Query** Lab log entry: `COc1cccc(/C=C2/Sc3scc(-c4ccccc4)[n+]3C2=O)c1O` — outcome as called in the assay?
**Result** no

**Query** Lab log entry: `O=C(/C=N/c1ccccc1[S-])c1ccco1.O=C(/C=N/c1ccccc1[S-])c1ccco1.[Zn+2]` — outcome as called in the assay?
**Result** no

**Query** Lab log entry: CNC(=O)/C=C/C1=CN2C(=O)c3ccc(C)c(O)c3NC(OC)C2C1 (stereo not given) — outcome as called in the assay?
**Result** yes

**Query** Lab log entry: `[O-]c1c2c(nn1-c1ccc(F)cc1)c1ccccc1c[n+]2Cc1ccccc1` — outcome as called in the assay?
**Result** no

**Query** Lab log entry: COc1ccc2c(c1)C1OCCNC1CC2 (stereo not given) — outcome as called in the assay?
**Result** no

**Query** Lab log entry: `C=CC[C@H]1O[Si](C(C)(C)C)(C(C)(C)C)[C@H](C)[C@H]1C` — outcome as called in the assay?
**Result** no

**Query** Lab log entry: `CN(C)CCCNc1c2ccccc2nc2cccc([N+](=O)[O-])c12` — outcome as called in the assay?
**Result** yes

**Query** Lab log entry: `ClCC[N+]12CC[N+](CCCl)(CC1)C2` — outcome as called in the assay?
**Result** no

**Query** Lab log entry: `Cc1cc(N(CCC#N)CCC#N)ccc1/C=C1\SC(=S)NC1=O` — outcome as called in the assay?
**Result** no

**Query** Lab log entry: `COC(OC)(c1ccccc1)C(Br)Br` — outcome as called in the assay?
**Result** no

**Query** Lab log entry: CC(C)[Si]1(C(C)C)OCC2OC(N3C(=O)NC(=O)C[C@@H]3C(O)c3ccccc3)CC2O[Si](C(C)C)(C(C)C)O1 (stereo not given in full) — outcome as called in the assay?
**Result** no

**Query** Lab log entry: CO[C@H]1C=CO[C@@]2(C)Oc3c(C)c(O)c4c(O)c(c(CN5CCN(C)CC5)c(O)c4c3C2=O)NC(=O)/C(C)=C\C=C[C@H](C)[C@H](O)C(C)[C@@H](O)C(C)[C@H](OC(C)=O)[C@@H]1C (stereo not given in full) — outcome as called in the assay?
**Result** no

**Query** Lab log entry: COC1/C=C/O[C@@]2(C)Oc3c(C)c(O)c4c(O)c(cc(O)c4c3C2=O)NC(=O)/C(C)=C\C=C\[C@H](C)C(O)[C@@H](C)[C@@H](O)[C@@H](C)[C@H](OC(C)=O)[C@@H]1C (stereo not given in full) — outcome as called in the assay?
**Result** no
